tested on: MDA-MB-231; experiment: Antiproliferative activity against human MDA-MB-231 cells assessed as inhibition of cell proliferation measured after 48 hrs by CCK8 assay; format: functional, cell-based; conditions: MDA-MB-231, 48 h
Some compounds, each annotated with its measured GI50.
Please respond with the number in µM and leave the unit unwritten.

See these solved cases before continuing.
Smiles Entry: Cc1ccccc1Nc1nc(Nc2ccccn2)ncc1Cl
Experimental Readout: GI50
Numeric Result: 11.2
//
Smiles Entry: CN1CCN(c2ccc(Nc3ncc(Cl)c(NCc4ccco4)n3)nc2)CC1
Experimental Readout: GI50
Numeric Result: 11
//
Smiles Entry: Cc1cccc(Nc2nc(Nc3ccc(N4CCN(C)CC4)cn3)ncc2Cl)c1
Experimental Readout: GI50
Numeric Result: 5.27
//
Smiles Entry: COc1cccc(Nc2nc(Nc3ccc(N4CCN(C)CC4)cn3)ncc2Cl)c1
Experimental Readout: GI50
Numeric Result: 8.51
//
Smiles Entry: Cc1ccccc1Nc1nc(Nc2cccnc2)ncc1Cl
Experimental Readout: GI50
Numeric Result: 41.2
//
Smiles Entry: CN1CCN(c2ccc(Nc3ncc(Cl)c(NCCc4ccc(F)cc4)n3)nc2)CC1
Experimental Readout: GI50
Numeric Result: 28.5

Continue with the next compound.
Lookup: Name the value of GI50 reported for CN1CCN(c2ccc(Nc3ncc(Cl)c(NCc4ccc(C(F)(F)F)cc4)n3)nc2)CC1 when tested on MDA-MB-231.
Found: 19.1

====

assay: Half life in Sprague-Dawley rat at 10 mg/kg, po by LC-MS/MS analysis; type: ADME, organism-based; details: in vivo
Experimental Readout: half-life

Lookup: Give me measured half-life, please, for this compound: CC(=O)Nc1cccc(Nc2nc(Nc3ccc(N4CCN(C)CC4)cn3)ncc2Cl)c1
Found: 194 min

====

assay: Stability in human hepatocytes assessed as parent compound remaining after 120 mins by LC-MS/MS analysis; format: ADME, cell-based, Hepatocyte; settings: read-out: Stability
Experimental Readout: remaining at 2 h (%)
Please respond with the number in % and leave the unit unwritten.

Lookup: Give me measured remaining at 2 h, please, for this compound: CC(=O)Nc1cccc(Nc2nc(Nc3ccc(N4CCN(C)CC4)cn3)ncc2Cl)c1
Found: 40.4

====

Some molecules, each annotated with its measured log10 GI50.
tested on: MCF7; assay: Antiproliferative activity against human MCF7 cells assessed as inhibition of cell proliferation measured after 48 hrs by CCK8 assay; type: functional, cell-based; conditions: MCF7, 48 h
A difference of one corresponds to tenfold GI50; all values are log10 with GI50 in µM.

Smiles Entry: Cc1ccccc1Nc1nc(Nc2cccnc2)ncc1Cl
Numeric Result: 1.75
//
Smiles Entry: CCN1CCN(Cc2ccc(Nc3ncc(F)c(-c4cc(F)c5nc(C)n(C(C)C)c5c4)n3)nc2)CC1
Numeric Result: 0.60
//
Smiles Entry: Cc1ccccc1Nc1nc(Nc2ccc(N3CCOCC3)cn2)ncc1Cl
Numeric Result: 0.82
//
Smiles Entry: CN1CCN(c2ccc(Nc3ncc(Cl)c(NCc4ccc(F)cc4)n3)nc2)CC1
Numeric Result: 1.29
//
Smiles Entry: CN1CCN(c2ccc(Nc3ncc(Cl)c(NCc4ccc(C(F)(F)F)cc4)n3)nc2)CC1
Numeric Result: 1.45
//
Smiles Entry: Cc1ccccc1Nc1nc(Nc2ccc(N3CCCN(C)CC3)cc2)ncc1Cl
Numeric Result: 0.63

Continue with the next molecule.
Lookup: Give me measured log10 GI50, please, for this molecule: Cc1ccc(Nc2nc(Nc3ccc(N4CCN(C)CC4)cn3)ncc2Cl)cc1
Found: 1.06

====

Assay system CDK6/cyclin D3 (Homo sapiens, UniProt Q00534); read-out recorded as IC50.
Please respond with the number in nM and leave the unit unwritten.

Lookup: Give me measured IC50, please, for this compound: Cc1cccc(Nc2nc(Nc3ccc(N4CCN(C)CC4)cn3)ncc2Cl)c1
Found: 80

Lookup: Give me measured IC50, please, for this compound: COc1cccc(CNc2nc(Nc3ccc(N4CCN(C)CC4)cn3)ncc2Cl)c1
Found: 1600

Lookup: Give me measured IC50, please, for this compound: CCN1CCN(c2ccc(Nc3ncc(Cl)c(Nc4ccccc4C)n3)cc2)CC1
Found: 114

====

molecular target: CDK6/cyclin D3 (Homo sapiens, UniProt Q00534); parameters: species or system Sf9
Sequence (P30281 whole entry): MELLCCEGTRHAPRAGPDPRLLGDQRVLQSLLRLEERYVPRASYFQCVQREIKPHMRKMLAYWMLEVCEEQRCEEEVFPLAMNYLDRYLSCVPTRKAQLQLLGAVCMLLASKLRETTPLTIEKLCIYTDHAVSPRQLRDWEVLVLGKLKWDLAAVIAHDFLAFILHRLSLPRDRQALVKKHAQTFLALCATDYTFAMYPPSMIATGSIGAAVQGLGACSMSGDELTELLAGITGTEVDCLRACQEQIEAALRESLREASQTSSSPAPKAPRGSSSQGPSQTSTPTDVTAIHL
Sequence (Q00534 whole entry): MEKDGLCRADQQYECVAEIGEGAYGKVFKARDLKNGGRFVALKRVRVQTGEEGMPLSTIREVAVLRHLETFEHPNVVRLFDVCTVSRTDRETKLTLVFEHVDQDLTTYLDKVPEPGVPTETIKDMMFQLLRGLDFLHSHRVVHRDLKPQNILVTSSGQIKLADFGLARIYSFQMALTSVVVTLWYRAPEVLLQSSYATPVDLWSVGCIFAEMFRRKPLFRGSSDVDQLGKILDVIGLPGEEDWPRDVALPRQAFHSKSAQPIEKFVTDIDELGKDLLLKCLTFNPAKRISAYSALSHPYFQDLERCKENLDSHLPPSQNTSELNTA
pIC50: −log10 of the molar value.
Is pIC50 at least 7? Then YES. If not, NO.

Field: example entries. Status: answers known.
Smiles Entry: Cc1ccccc1Nc1nc(NCCc2ccccn2)ncc1Cl
Assayed System: CDK6/cyclin D3 (Homo sapiens, UniProt Q00534)
Class Label: NO
--
Smiles Entry: CN1CCN(c2ccc(Nc3ncc(Cl)c(NCCc4ccccc4)n3)nc2)CC1
Assayed System: CDK6/cyclin D3 (Homo sapiens, UniProt Q00534)
Class Label: NO

Here is the next item to consider.
Lookup: Identify whether the reported pIC50 of the following compound is 7 or greater: Cc1ccccc1Nc1nc(Nc2ccc(N3CCNCC3)cn2)ncc1Cl
Found: YES

====

assay: Clearance in human hepatocytes assessed per million cells by LC-MS/MS analysis; assay type: ADME, cell-based, Hepatocyte; details: read-out: CLH
Experimental Readout: hepatocyte CLint (µL/min/1e6 cells)
Please respond with the number in µL/min/1e6 cells and leave the unit unwritten.

Lookup: Give me measured hepatocyte CLint, please, for this molecule: CC(=O)Nc1cccc(Nc2nc(Nc3ccc(N4CCN(C)CC4)cn3)ncc2Cl)c1
Found: 7.5

====

assay: Stability in mouse hepatocytes assessed as parent compound remaining after 120 mins by LC-MS/MS analysis; type: ADME, cell-based, Hepatocyte; details: read-out: Stability
Experimental Readout: remaining at 2 h (%)
Please respond with the number in % and leave the unit unwritten.

Lookup: Give me measured remaining at 2 h, please, for this molecule: CC(=O)Nc1cccc(Nc2nc(Nc3ccc(N4CCN(C)CC4)cn3)ncc2Cl)c1
Found: 12

====

tested on: MDA-MB-231; test: Antiproliferative activity against human MDA-MB-231 cells assessed as inhibition of cell proliferation measured after 48 hrs by CCK8 assay; type: functional, cell-based; conditions: MDA-MB-231, 48 h
// boundary case: GI50 equal to 5 µM maps to rule not met; strictly smaller maps to rule met

Smiles Entry: CC(C)c1ccc(Nc2nc(Nc3ccc(N4CCN(C)CC4)cn3)ncc2Cl)cc1
Assayed System: MDA-MB-231
Class Label: rule not met
--
Smiles Entry: CN1CCN(c2ccc(Nc3ncc(Cl)c(NCCc4ccccc4)n3)nc2)CC1
Assayed System: MDA-MB-231
Class Label: rule not met
--
Smiles Entry: Cc1ccccc1Nc1nc(NCCc2cccnc2)ncc1Cl
Assayed System: MDA-MB-231
Class Label: rule not met

Lookup: hey, is GI50 for Cc1ccccc1Nc1nc(Nc2ccc(N3CCOCC3)cc2)ncc1Cl lower than 5 µM or not?
Found: rule not met

Lookup: hey, is GI50 for COc1cc(Nc2ncc(Cl)c(Nc3ccccc3C)n2)ccn1 lower than 5 µM or not?
Found: rule not met

Lookup: hey, is GI50 for CCN1CCN(c2ccc(Nc3ncc(Cl)c(Nc4ccccc4C)n3)cc2)CC1 lower than 5 µM or not?
Found: rule met

Lookup: hey, is GI50 for COc1cccc(CNc2nc(Nc3ccc(N4CCN(C)CC4)cn3)ncc2Cl)c1 lower than 5 µM or not?
Found: rule not met

Lookup: hey, is GI50 for Cc1ccccc1Nc1nc(NCc2ccncc2)ncc1Cl lower than 5 µM or not?
Found: rule not met

Lookup: hey, is GI50 for COc1ccccc1CNc1nc(Nc2ccc(N3CCN(C)CC3)cn2)ncc1Cl lower than 5 µM or not?
Found: rule not met

Lookup: hey, is GI50 for Cc1ccccc1Nc1nc(NCc2ccccc2)ncc1Cl lower than 5 µM or not?
Found: rule not met

Lookup: hey, is GI50 for Cc1ccccc1Nc1nc(NCCc2ccccc2)ncc1Cl lower than 5 µM or not?
Found: rule not met

Lookup: hey, is GI50 for Cc1ccc(Nc2nc(Nc3ccc(N4CCN(C)CC4)cn3)ncc2Cl)cc1 lower than 5 µM or not?
Found: rule met

Lookup: hey, is GI50 for Cc1ccccc1Nc1nc(Nc2ccc(N3CCN(C(=O)OC(C)(C)C)CC3)cc2)ncc1Cl lower than 5 µM or not?
Found: rule met

Lookup: hey, is GI50 for Cc1ccccc1Nc1nc(NC2CC2)ncc1Cl lower than 5 µM or not?
Found: rule not met

====

test: Thermodynamic equilibrium solubility in water by HPLC-based shake flask method; assay type: physicochemical; conditions: read-out: Therm_solubility
Some compounds, each annotated with its measured solubility thermodynamic.
Please respond with the number in µg/mL and leave the unit unwritten.

Smiles Entry: CC(=O)Nc1cccc(Nc2nc(Nc3ccc(N4CCN(C)CC4)cn3)ncc2Cl)c1.Cl
Uom: µg/mL
Numeric Result: 7700

Continue with the next compound.
Lookup: Give me measured solubility thermodynamic, please, for this compound: CC(=O)Nc1cccc(Nc2nc(Nc3ccc(N4CCN(C)CC4)cn3)ncc2Cl)c1
Found: 340

====

experiment: AUC (0 to infinity) in Sprague-Dawley rat at 10 mg/kg, po by LC-MS/MS analysis; assay type: ADME, organism-based; parameters: dose 10 mg/kg, time infinity, route oral; conditions: in vivo
Experimental Readout: AUC(0-inf) (ng·h/mL)
Please respond with the number in ng·h/mL and leave the unit unwritten.

Lookup: Give me measured AUC(0-inf), please, for this molecule: CC(=O)Nc1cccc(Nc2nc(Nc3ccc(N4CCN(C)CC4)cn3)ncc2Cl)c1
Found: 926

Data credit: ChEMBL document CHEMBL4602695
